Origin of measurements: ChEMBL document CHEMBL2093137

Kindly supply the reported IC50 values for the records listed here.
- method notes: WHO-TDR: Cytotoxicity
- Format: toxicity, cell-based
- condition set: human, MRC5 cells

Cc1ccc(Cl)c2sc(N3CCN(C)CC3)nc12 has a reported IC50 of > 9.55 µg/mL

compound CN(C)C(CNS(=O)(=O)c1ccc(Cl)s1)c1ccc(F)cc1 (stereo not drawn) , IC50 observed: > 10.9 µg/mL

// recorded IC50 for CCOC(=O)c1sc(NC(=O)C(C)Sc2ncnc3ccccc23)c(C(=O)OCC)c1C (stereo not drawn) : > 14.2 µg/mL

---

Field: IC50. Provide a value for each of the compounds that follow.
- System: Trypanosoma cruzi
- method notes: WHO-TDR: Chagas disease
- Format: functional, organism-based, Homo sapiens
- condition set: MRC5
Write the value in µg/mL as a bare number.

Form: compound = CCCc1cc(=O)[nH]c(-n2nc(C)cc2NC(=O)COc2ccc(Cl)cc2Cl)n1 ; IC50 = 0.395

Reported IC50 for CCNc1cc(C)nc(Nc2ccc(NC(=O)CC3CCCC3)cc2)n1 was 0.299

# IC50 (compound: CC(C)(C)c1ccc(-c2csc(NC(=O)c3ccc4ncsc4c3)n2)cc1 ) is 0.891

For reference, reported IC50 for CN(C)CCCN(C(=O)Cc1ccccc1)c1nc2ccc(F)cc2s1 stands at 4.16

Looking up COc1cccc2sc(Nc3sc4c(c3C(N)=O)CCCC4)nc12 , I found its IC50 recorded as 3

For this compound ( COc1ccc(-c2cn3c(C(=O)Nc4ccc(OC(F)(F)F)cc4)csc3n2)cc1 ), measured IC50 is 3.69

Item: O=C(Nc1nc(-c2ccncc2)cs1)C1CCCN(S(=O)(=O)c2cccs2)C1 (configuration not stated) | IC50: 0.534

response.value for CCS(=O)(=O)c1ccc(CC(=O)Nc2nc3c(s2)CCc2ccccc2-3)cc1 (field: IC50) = 0.436

Just so you know, measured IC50 for O=C(c1cccs1)N(CCCn1ccnc1)c1nc2c(F)cc(F)cc2s1 came out at 4.01

Looking up O=C(CSc1ccc2nnc(-c3ccccn3)n2n1)NCC1CCCO1 (configuration not stated) , I see its IC50 listed as 5.24

Lab book: IC50 of Cn1nccc1C(=O)Nc1sc(-c2ccccc2)cc1C(N)=O noted as 6.26

The compound listed as COc1ccc(OC)c(Nc2nc(CC(=O)NCc3ccccc3Cl)cs2)c1 shows IC50 equal to 3.77
